meta.source: patent US20110319392A1

Can you tell me IC50 for the items I'm about to list?
- Target System: B-Raf (Homo sapiens, UniProt P15056)
- Sequence (P15056 whole entry): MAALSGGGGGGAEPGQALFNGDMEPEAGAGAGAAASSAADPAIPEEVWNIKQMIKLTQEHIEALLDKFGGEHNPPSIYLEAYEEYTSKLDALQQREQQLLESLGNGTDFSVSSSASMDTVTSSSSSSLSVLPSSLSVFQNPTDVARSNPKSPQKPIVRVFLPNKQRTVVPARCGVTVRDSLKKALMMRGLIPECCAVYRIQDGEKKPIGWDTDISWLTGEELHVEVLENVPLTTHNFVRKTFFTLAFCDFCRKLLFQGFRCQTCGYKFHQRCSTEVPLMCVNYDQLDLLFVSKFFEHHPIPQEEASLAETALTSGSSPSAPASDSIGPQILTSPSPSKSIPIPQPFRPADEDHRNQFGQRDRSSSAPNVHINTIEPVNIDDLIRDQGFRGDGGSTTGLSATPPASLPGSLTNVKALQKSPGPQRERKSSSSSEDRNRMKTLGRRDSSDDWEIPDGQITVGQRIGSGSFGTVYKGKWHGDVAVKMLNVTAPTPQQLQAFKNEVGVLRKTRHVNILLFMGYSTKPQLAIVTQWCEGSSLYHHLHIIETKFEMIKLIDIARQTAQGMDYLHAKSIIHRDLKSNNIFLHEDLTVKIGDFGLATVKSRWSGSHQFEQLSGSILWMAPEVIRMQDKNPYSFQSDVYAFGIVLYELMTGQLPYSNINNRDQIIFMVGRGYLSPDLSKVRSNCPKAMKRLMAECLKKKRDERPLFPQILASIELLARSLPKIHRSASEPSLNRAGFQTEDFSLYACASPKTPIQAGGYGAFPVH
- Procedure Details: B-Raf Accelerated MEK ATPase assay (BRAMA), Method A or B
- Assay type: biochemical
- Test Settings: Method B: final MEK 150 nM, single end point read

Request: Identify the reported IC50 for the following entry. `O=S(=O)(Nc1cccc(-c2ncsc2-c2ccnc(Nc3ccc(N4CCOCC4)nc3)n2)c1)c1c(F)cccc1F`
Result: < 100 nM

Request: Identify the reported IC50 for the following entry. `CCc1nc(-c2cccc(CNS(=O)(=O)c3ccccc3)c2)c(-c2ccnc(Nc3ccc(N4CCN(CCS(C)(=O)=O)CC4)c(F)c3)n2)s1`
Result: 100 to 1000 nM

Request: Identify the reported IC50 for the following entry. `COc1cc(N2CCN(CCS(C)(=O)=O)CC2)c(C)cc1Nc1nccc(-c2sc(C(C)C)nc2-c2cccc(NS(=O)(=O)c3c(F)cccc3F)c2)n1`
Result: < 100 nM

Request: Identify the reported IC50 for the following entry. `CS(=O)(=O)CCN1CCN(c2ccc(Nc3nccc(-c4oc(N5CCCC5)nc4-c4cccc(NS(=O)(=O)c5c(F)cccc5F)c4F)n3)cc2F)CC1`
Result: < 100 nM

Request: Identify the reported IC50 for the following entry. `COc1ccc(S(C)(=O)=O)cc1Nc1nccc(-c2sc(N3CCOCC3)nc2-c2cccc(NS(=O)(=O)c3c(F)cccc3F)c2Cl)n1`
Result: < 100 nM

Request: Identify the reported IC50 for the following entry. `CC(C)c1nc(-c2cccc(NS(=O)(=O)c3c(F)cccc3F)c2F)c(-c2ccnc(Nc3ccc(N4CCOCC4)nc3)n2)s1`
Result: < 100 nM

Request: Identify the reported IC50 for the following entry. `CC(C)c1nc(-c2cccc(NS(=O)(=O)c3c(F)cccc3F)c2)c(-c2ccnc(Nc3ccc(N4CCN(C(C)C)CC4)cc3O)n2)s1`
Result: < 100 nM

Request: Identify the reported IC50 for the following entry. `COc1cc(N2CCN(CCS(C)(=O)=O)CC2)c(C)cc1Nc1nccc(-c2sc(C(C)C)nc2-c2cccc(NS(=O)(=O)c3cccnc3)c2)n1`
Result: < 100 nM

Request: Identify the reported IC50 for the following entry. `COc1c(NS(=O)(=O)c2c(F)cccc2F)cccc1-c1nc(N2CCOCC2)sc1-c1ccnc(Nc2ccc3c(c2)OCCO3)n1`
Result: < 100 nM

Request: Identify the reported IC50 for the following entry. `CC(C)c1nc(-c2cccc(NS(=O)(=O)c3c(F)cccc3F)c2)c(-c2ccnc(Nc3cc(F)c(N4CCN(CCS(C)(=O)=O)CC4)cc3F)n2)s1`
Result: < 100 nM

Request: Identify the reported IC50 for the following entry. `COc1cc(N2CCC(CCS(C)(=O)=O)CC2)c(C)cc1Nc1nccc(-c2sc(N3CCCC3)nc2-c2cccc(NS(=O)(=O)c3c(F)cccc3F)c2)n1`
Result: 100 to 1000 nM

Request: Identify the reported IC50 for the following entry. `CS(=O)(=O)c1cccc(Nc2nccc(-c3sc(N4CCOCC4)nc3-c3cccc(NS(=O)(=O)c4c(F)cccc4F)c3Cl)n2)c1`
Result: < 100 nM

* * *

- System: SK-MEL-3 tumor cells
- Procedure Details: Cell growth inhibition assay (CellTiter-Glo), SK-MEL-3
- Format: cell-based, Human
- Test Settings: Homo sapiens, SK-MEL3
pIC50: −log10 of the molar value. Counter-ions that a name gives are not always drawn.
Endpoint Name: pIC50

Request: Identify the reported pIC50 for the following entry. `CC(C)c1nc(-c2ccc(F)c(NS(=O)(=O)c3c(F)cccc3F)c2)c(-c2ccnc(Nc3ccncc3)n2)s1`
Result: 6.00 to 7.00

Request: Identify the reported pIC50 for the following entry. `COc1c(NS(=O)(=O)c2c(F)cccc2F)cccc1-c1nc(N2CCOCC2)sc1-c1ccnc(Nc2ccc3c(c2)OCCO3)n1`
Result: 6.00 to 7.00

Request: Identify the reported pIC50 for the following entry. `O=S(=O)(Nc1cccc(-c2nc(N3CCOCC3)sc2-c2ccnc(Nc3ccc(N4CCOCC4)nc3)n2)c1F)c1c(F)cccc1F`
Result: > 7.00

Request: Identify the reported pIC50 for the following entry. `CC(C)c1nc(-c2cccc(NS(=O)(=O)c3c(F)cccc3F)n2)c(-c2ccnc(Nc3ccc(N4CCOCC4)nc3)n2)s1`
Result: 6.00 to 7.00

Request: Identify the reported pIC50 for the following entry. `CC(C)c1nc(-c2cccc(NS(=O)(=O)c3c(F)cccc3F)c2)c(-c2ccnc(Nc3ccc(N4CCCNCC4)nc3)n2)s1`
Result: > 7.00

Request: Identify the reported pIC50 for the following entry. `CC(C)c1nc(-c2cccc(NS(=O)(=O)c3c(F)cccc3F)c2)c(-c2ccnc(Nc3ccc(N4CCOCC4)nc3)n2)s1`
Result: > 7.00

Request: Identify the reported pIC50 for the following entry. `CC(C)c1nc(-c2cccc(NS(=O)(=O)c3ccccc3)c2)c(-c2ccnc(Nc3ccc(CC4CCN(CCS(C)(=O)=O)CC4)c(F)c3)n2)s1`
Result: > 7.00

Request: Identify the reported pIC50 for the following entry. `CC(C)(C)c1nc(-c2ccc(F)c(NS(=O)(=O)c3c(F)cccc3F)c2)c(-c2ccnc(Nc3ccc(N4CCN(CCF)CC4)c(F)c3)n2)s1`
Result: 6.00 to 7.00

Request: Identify the reported pIC50 for the following entry. `CN1CCN(c2nc(-c3ccc(F)c(NS(=O)(=O)c4c(F)cccc4F)c3)c(-c3ccnc(Nc4ccc(N5CCOCC5)nc4)n3)s2)CC1`
Result: 6.00 to 7.00

Request: Identify the reported pIC50 for the following entry. `COc1ccc(Nc2nccc(-c3sc(C(C)C)nc3-c3cccc(NS(=O)(=O)c4ccccc4)c3)n2)cc1N1CCN(CCC#N)CC1`
Result: > 7.00

Request: Identify the reported pIC50 for the following entry. CC(C)c1nc(-c2cccc(NS(=O)(=O)c3c(F)cccc3F)c2)c(-c2ccnc(Nc3ccc(N4CCN(CCS(C)(=O)=O)CC4)c(F)c3)n2)s1 [Example 16, hydrochloride]
Result: > 7.00

Request: Identify the reported pIC50 for the following entry. `CC(C)c1nc(-c2cccc(NS(=O)(=O)c3c(F)cccc3F)c2)c(-c2ccnc(Nc3ccc(N4CCCN(CCS(C)(=O)=O)CC4)nc3)n2)s1`
Result: > 7.00

Request: Identify the reported pIC50 for the following entry. `CC(C)c1nc(-c2cc(F)c(F)c(NS(=O)(=O)c3cccc(F)c3)c2)c(-c2ccnc(Nc3cnc(N4CCOCC4)c(F)c3)n2)s1`
Result: 6.00 to 7.00

* * *

- Target System: ErbB2 (Homo sapiens)
- Sequence (P04626 23-1255): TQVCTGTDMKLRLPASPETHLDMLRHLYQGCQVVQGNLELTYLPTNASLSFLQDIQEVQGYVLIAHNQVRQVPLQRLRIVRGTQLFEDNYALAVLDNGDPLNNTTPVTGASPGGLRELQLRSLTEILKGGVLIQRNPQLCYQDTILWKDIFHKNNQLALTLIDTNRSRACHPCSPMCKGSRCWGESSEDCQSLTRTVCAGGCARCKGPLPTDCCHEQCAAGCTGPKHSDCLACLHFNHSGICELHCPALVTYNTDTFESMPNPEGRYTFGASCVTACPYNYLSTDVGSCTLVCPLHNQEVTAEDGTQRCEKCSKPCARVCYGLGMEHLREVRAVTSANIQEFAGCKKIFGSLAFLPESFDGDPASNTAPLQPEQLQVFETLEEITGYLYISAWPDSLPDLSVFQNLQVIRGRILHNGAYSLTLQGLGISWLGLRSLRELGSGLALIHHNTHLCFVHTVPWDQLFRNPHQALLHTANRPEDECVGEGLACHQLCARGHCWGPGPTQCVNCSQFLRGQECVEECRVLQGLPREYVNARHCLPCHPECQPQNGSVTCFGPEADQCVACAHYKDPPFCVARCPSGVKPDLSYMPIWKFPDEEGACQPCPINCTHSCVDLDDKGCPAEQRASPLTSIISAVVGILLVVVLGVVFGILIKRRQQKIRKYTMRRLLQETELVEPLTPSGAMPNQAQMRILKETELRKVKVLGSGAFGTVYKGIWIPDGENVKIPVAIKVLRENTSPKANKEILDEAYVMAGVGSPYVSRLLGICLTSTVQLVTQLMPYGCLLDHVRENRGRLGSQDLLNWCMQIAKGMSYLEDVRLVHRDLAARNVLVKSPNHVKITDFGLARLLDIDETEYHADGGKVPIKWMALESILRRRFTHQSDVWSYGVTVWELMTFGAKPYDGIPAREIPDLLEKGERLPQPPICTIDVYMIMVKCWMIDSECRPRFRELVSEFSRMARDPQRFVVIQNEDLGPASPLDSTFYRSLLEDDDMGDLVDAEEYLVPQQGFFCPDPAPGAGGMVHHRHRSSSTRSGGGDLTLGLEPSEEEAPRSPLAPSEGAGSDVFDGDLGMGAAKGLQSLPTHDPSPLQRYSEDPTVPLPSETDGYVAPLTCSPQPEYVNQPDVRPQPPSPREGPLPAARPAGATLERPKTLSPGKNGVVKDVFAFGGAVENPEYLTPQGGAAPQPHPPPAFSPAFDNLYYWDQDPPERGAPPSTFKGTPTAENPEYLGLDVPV
pIC50: −log10 of the molar value. Structures can show the parent of a compound that is named as a salt.
Can you tell me pIC50 for the items I'm about to list?

Request: Identify the reported pIC50 for the following entry. `Cc1cc(N2CCN(CCS(C)(=O)=O)CC2)ncc1Nc1nccc(-c2sc(C(C)C)nc2-c2cccc(NS(=O)(=O)c3c(F)cccc3F)c2)n1`
Result: 6.00 to 7.00

Request: Identify the reported pIC50 for the following entry. `CC(C)c1nc(-c2ccc(F)c(NS(=O)(=O)c3ccccc3C(F)(F)F)c2)c(-c2ccnc(Nc3ccc(N4CCOCC4)nc3)n2)s1`
Result: 6.00 to 7.00

Request: Identify the reported pIC50 for the following entry. `COc1cc(N2CCN(CCS(C)(=O)=O)CC2)c(C)cc1Nc1nccc(-c2sc(C(C)C)nc2-c2cccc(NS(=O)(=O)c3c(F)cccc3F)n2)n1`
Result: > 7.00

Request: Identify the reported pIC50 for the following entry. `COc1cc(N2CCN(CCS(C)(=O)=O)CC2)c(C)cc1Nc1nccc(-c2sc(N)nc2-c2cccc(NS(=O)(=O)c3c(F)cccc3F)c2)n1`
Result: > 7.00

Request: Identify the reported pIC50 for the following entry. `CC(C)c1nc(-c2ccnc(NS(=O)(=O)c3c(F)cccc3F)c2)c(-c2ccnc(Nc3ccc(N4CCOCC4)nc3)n2)s1`
Result: < 6.00

Request: Identify the reported pIC50 for the following entry. `CCc1nc(-c2cccc(CNS(=O)(=O)c3ccccc3)c2)c(-c2ccnc(Nc3ccc(N4CCN(C(C)=O)CC4)nc3)n2)s1`
Result: 6.00 to 7.00

Request: Identify the reported pIC50 for the following entry. `CCOc1ccc(Nc2nccc(-c3sc(C(C)C)nc3-c3ccc(F)c(NS(=O)(=O)c4c(F)cccc4F)c3)n2)cc1N1CCN(CCF)CC1`
Result: > 7.00

Request: Identify the reported pIC50 for the following entry. `CC(C)(C)c1nc(-c2ccc(F)c(NS(=O)(=O)c3c(F)cccc3F)c2)c(-c2ccnc(Nc3ccc(N4CCN(CCF)CC4)c(F)c3)n2)s1`
Result: > 7.00

Request: Identify the reported pIC50 for the following entry. CC(C)c1nc(-c2cccc(NS(=O)(=O)c3ccccc3)c2)c(-c2ccnc(Nc3ccc(N4CCOCC4)nc3)n2)s1 [Example 8, hydrochloride]
Result: < 6.00

Request: Identify the reported pIC50 for the following entry. `CC(C)c1nc(-c2cc(F)cc(NS(=O)(=O)c3ccc(F)cc3)c2)c(-c2ccnc(Nc3ccc(N4CCOCC4)c(F)c3)n2)s1`
Result: < 6.00

Request: Identify the reported pIC50 for the following entry. `CCNc1nc(-c2cccc(NS(=O)(=O)c3c(F)cccc3F)c2)c(-c2ccnc(Nc3ccc(N4CCOCC4)nc3)n2)s1`
Result: 6.00 to 7.00

Request: Identify the reported pIC50 for the following entry. `CCc1nc(-c2cccc(NS(=O)(=O)c3ccccc3)c2)c(-c2ccnc(Nc3ccc(N4CCOCC4)c(F)c3)n2)s1`
Result: < 6.00

Request: Identify the reported pIC50 for the following entry. `CC(C)c1nc(-c2cccc(NS(=O)(=O)c3c(F)cccc3F)c2)c(-c2ccnc(Nc3ccc(N4CCOCC4)nc3)n2)s1`
Result: < 6.00

Request: Identify the reported pIC50 for the following entry. `Cc1cc(S(=O)(=O)Nc2cccc(-c3nc(C(C)C)sc3-c3ccnc(Nc4ccc(N5CCOCC5)nc4)n3)c2)c(F)cc1Cl`
Result: 6.00 to 7.00

Request: Identify the reported pIC50 for the following entry. CC(C)c1nc(-c2cccc(NS(=O)(=O)c3c(F)cccc3F)c2)c(-c2ccnc(Nc3ccc(OC4CCN(CCS(C)(=O)=O)CC4)c(F)c3)n2)s1 [Example 13, hydrochloride]
Result: < 6.00

Request: Identify the reported pIC50 for the following entry. `CC(C)c1nc(-c2cccc(NS(=O)(=O)c3c(F)cccc3F)n2)c(-c2ccnc(Nc3ccc(N4CCOCC4)nc3)n2)s1`
Result: < 6.00

Request: Identify the reported pIC50 for the following entry. `CC(C)c1nc(-c2cccc(NS(=O)(=O)c3cccnc3)c2)c(-c2ccnc(Nc3ccc(N4CCOCC4)nc3)n2)s1`
Result: 6.00 to 7.00

Request: Identify the reported pIC50 for the following entry. `COc1cc(N2CCN(CCS(C)(=O)=O)CC2)c(C)cc1Nc1nccc(-c2sc(C3CC3)nc2-c2cccc(NS(=O)(=O)c3c(F)cccc3F)c2)n1`
Result: > 7.00

Request: Identify the reported pIC50 for the following entry. `CCc1nc(-c2cccc(CNS(=O)(=O)c3ccccc3)c2)c(-c2ccnc(Nc3ccc(N4CCOCC4)c(F)c3)n2)s1`
Result: 6.00 to 7.00

Request: Identify the reported pIC50 for the following entry. `CC(C)c1nc(-c2ccc(F)c(NS(=O)(=O)c3c(F)cccc3F)c2)c(-c2ccnc(Nc3ncc[nH]3)n2)s1`
Result: < 6.00

Request: Identify the reported pIC50 for the following entry. `CC(C)c1nc(-c2cccc(NS(=O)(=O)c3c(F)cccc3F)c2)c(-c2ccnc(Nc3cccc(N4CCN(C)CC4)c3)n2)s1`
Result: 6.00 to 7.00

Request: Identify the reported pIC50 for the following entry. `CC(=O)N1CCN(c2ccc(Nc3nccc(-c4sc(C(C)C)nc4-c4cccc(NS(=O)(=O)c5cccc(F)c5)c4)n3)cn2)CC1`
Result: 6.00 to 7.00

Request: Identify the reported pIC50 for the following entry. `CCc1nc(-c2ccc(F)c(NS(=O)(=O)c3ccccc3)c2)c(-c2ccnc(Nc3ccc(N4CCN(C(C)=O)CC4)nc3)n2)s1`
Result: < 6.00

Request: Identify the reported pIC50 for the following entry. `COc1cc(N2CCN(CCS(C)(=O)=O)CC2)c(C)cc1Nc1nccc(-c2sc(C(C)C)nc2-c2cccc(NS(=O)(=O)c3cccnc3)c2)n1`
Result: > 7.00

Request: Identify the reported pIC50 for the following entry. `CC(=O)N1CCN(c2ccc(Nc3nccc(-c4sc(C(C)C)nc4-c4cccc(NS(=O)(=O)c5ccc(F)cc5)c4)n3)cn2)CC1`
Result: < 6.00
